- target_or_system: Voltage-gated potassium channel subunit beta-2 (Rattus norvegicus) (UniProt P62483)
- Sequence (P62483 whole entry, looked up): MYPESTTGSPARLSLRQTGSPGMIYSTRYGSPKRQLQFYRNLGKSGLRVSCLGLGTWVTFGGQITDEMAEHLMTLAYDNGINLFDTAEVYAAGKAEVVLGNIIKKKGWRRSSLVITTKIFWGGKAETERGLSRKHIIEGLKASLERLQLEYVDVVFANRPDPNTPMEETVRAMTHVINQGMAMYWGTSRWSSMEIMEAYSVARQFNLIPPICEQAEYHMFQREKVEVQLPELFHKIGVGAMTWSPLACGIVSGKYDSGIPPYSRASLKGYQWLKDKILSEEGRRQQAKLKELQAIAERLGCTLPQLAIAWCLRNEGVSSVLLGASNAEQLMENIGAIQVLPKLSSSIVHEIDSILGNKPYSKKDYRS
- assay_method_text: enhancers of rat Kvbeta2 NADPH turnover – biochemical, NADPH fluorescence, primary screen (AID 623);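 further: fluorescence intensity change per second fitted from 20 to 320 s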
- assay_setup: Recombinant KvBeta, NADPH fluorescence decrease slope, 10 min; at 10 µM; active compounds read low
measured_attribute: NADPH fluorescence slope
Lab note: write the figure by itself, no unit.

response.value for "Cc1cccc(-n2ncc3c(N(CCO)CCO)ncnc32)c1" (field: NADPH fluorescence slope) = -1.8e-05

Summary for this molecule, O=C(NC12CC3CC(CC(C3)C1)C2)N1CCN(C(=O)C2CCCO2)CC1 (stereo unspecified) : NADPH fluorescence slope is -7.1e-05

Record Nc1nc2n(n1)C(c1cccc(Br)c1)CC(c1ccccc1)N2 (stereo unspecified) , field NADPH fluorescence slope: 9.1e-06

Documented NADPH fluorescence slope of "COCCN1Cc2cccc(C(=O)Nc3cccnc3)c2C1=O" : -0.000182

Lab note: "O=C(NC1CC1)c1ccc(S(=O)(=O)NCC2CCCCC2)cc1" gave NADPH fluorescence slope of 2.4e-05

Form: molecule = "COC(=O)CNC(=O)COC(=O)c1cc(Cl)cc(Cl)c1N" ; NADPH fluorescence slope = 1.6e-05

Reported NADPH fluorescence slope of O=C(NCC(=O)N(Cc1cccs1)C(C(=O)NC1CCCC1)c1ccncc1)c1ccco1 (stereo unspecified) : -2e-05

The value of NADPH fluorescence slope measured for the molecule "O=C(Oc1cccc2cccnc12)c1cccc(-n2cnnn2)c1" turned out to be -3.7e-05

Reported NADPH fluorescence slope of "CCOc1ccc(N(CC(=O)OC)S(=O)(=O)c2ccc(OC)c(OC)c2)cc1" : 6.6e-05

// field: NADPH fluorescence slope; key: "CC(C)N(C(=O)N1CCC(c2nc(-c3ccncc3)no2)CC1)C(C)C" ; value = -3.3e-05

Lab book: NADPH fluorescence slope of "O=S(=O)(c1ccc(N2CCN(c3ccc(F)cc3)CC2)cc1)N1CCCC1" noted as -2.4e-05

The reported NADPH fluorescence slope of the molecule COc1ccccc1CNC(=O)C1CCCN(S(=O)(=O)c2cccc3cccnc23)C1 (stereo unspecified) was -5.8e-05

NADPH fluorescence slope in this record for "COc1ccc(N(CC(=O)Nc2ccc3c(c2)OCO3)S(=O)(=O)c2c(C)nn(C)c2C)cc1" : -4.5e-06

Value of NADPH fluorescence slope reported for the molecule "FC(F)(F)c1cc(-c2ccco2)nc(N2CCOCC2)n1" is -1.4e-05

Recorded result, CC(NCc1ccco1)C(=O)N1CCc2ccccc2C1 (stereo unspecified) , NADPH fluorescence slope: -0.000253

Entry "CC(=O)Nc1ccc(S(=O)(=O)N2CCN=C2C)cc1" , NADPH fluorescence slope reported as -1.6e-05
